Hey, just so you know, these numbers are from patent US10350224B2.

- methodNotes: Study A: single-dose pharmacokinetics of serum 25-hydroxyvitamin D3 in subjects with stage 3 or 4 CKD
- Format: in vivo, human
- conditionsUsed: human, serum, iv, 448 ug, approximate mean Cmax of 25-hydroxyvitamin D3, Study A; single i.v. dose 448 μg in ethanol solution
testReadout: Cmax

# input Entry C=C1CC[C@H](O)C/C1=C/C=C1\CCC[C@]2(C)[C@@H]([C@H](C)CCCC(C)(C)O)CC[C@@H]12 [25-hydroxyvitamin D3] needs its Cmax filled in; supply it.
# output ~134 ng/mL

----------
- methodNotes: Study A: single-dose pharmacokinetics of serum 25-hydroxyvitamin D3 in subjects with stage 3 or 4 CKD
- Format: in vivo, human
- conditionsUsed: human, serum, iv, 448 ug, baseline-adjusted 25-hydroxyvitamin D3; 448 μg iv single dose; read-out: t1/2 median (converted)
testReadout: half-life

# input Quote half-life reported for C=C1CC[C@H](O)C/C1=C/C=C1\CCC[C@]2(C)[C@@H]([C@H](C)CCCC(C)(C)O)CC[C@@H]12 [25-hydroxyvitamin D3] please.
# output 27.6 days

----------
- methodNotes: Study A: single-dose pharmacokinetics of serum 25-hydroxyvitamin D3 in subjects with stage 3 or 4 CKD
- Type: in vivo, human
- conditionsUsed: human, serum, iv, 448 ug, baseline-adjusted 25-hydroxyvitamin D3; 448 μg iv single dose; read-out: tmax mean (SD)
testReadout: Tmax
For clarity, give the value followed by its unit.

# input Using the record for C=C1CC[C@H](O)C/C1=C/C=C1\CCC[C@]2(C)[C@@H]([C@H](C)CCCC(C)(C)O)CC[C@@H]12 [25-hydroxyvitamin D3] , state its measured Tmax.
# output 29.4 min

----------
- methodNotes: Study A: single-dose pharmacokinetics of serum 25-hydroxyvitamin D3 in subjects with stage 3 or 4 CKD
- Assay type: in vivo, human
- conditionsUsed: human, serum, iv, 448 ug, observed 25-hydroxyvitamin D3; 448 μg iv single dose; read-out: AUC0-inf mean
testReadout: AUC(0-inf) (µg·h/mL)
Answer with a number only, understood to be in µg·h/mL.

# input Name the recorded AUC(0-inf) of the item C=C1CC[C@H](O)C/C1=C/C=C1\CCC[C@]2(C)[C@@H]([C@H](C)CCCC(C)(C)O)CC[C@@H]12 [25-hydroxyvitamin D3] in your answer.
# output 138

----------
- methodNotes: Study A: single-dose pharmacokinetics of serum 25-hydroxyvitamin D3 in subjects with stage 3 or 4 CKD
- Assay type: in vivo, human
- conditionsUsed: human, serum, iv, 448 ug, observed 25-hydroxyvitamin D3; 448 μg iv single dose; read-out: tmax mean (SD)
testReadout: Tmax (min)
The answer is to be given in min; state only the numeric part.

# input Using the record for C=C1CC[C@H](O)C/C1=C/C=C1\CCC[C@]2(C)[C@@H]([C@H](C)CCCC(C)(C)O)CC[C@@H]12 [25-hydroxyvitamin D3] , state its measured Tmax.
# output 29.4

----------
- methodNotes: Study A: single-dose pharmacokinetics of serum 25-hydroxyvitamin D3 in subjects with stage 3 or 4 CKD
- Assay type: in vivo, human
- conditionsUsed: human, serum, iv, 448 ug, observed 25-hydroxyvitamin D3; 448 μg iv single dose; read-out: AUC0-inf median
testReadout: AUC(0-inf) (µg·h/mL)
Express the result in µg·h/mL but write the number alone.

# input Give reported AUC(0-inf) value for C=C1CC[C@H](O)C/C1=C/C=C1\CCC[C@]2(C)[C@@H]([C@H](C)CCCC(C)(C)O)CC[C@@H]12 [25-hydroxyvitamin D3]
# output 124
